Data origin, for the record: the supplement of paper PMC10567573

B1: ZNF207 (parent)
chain: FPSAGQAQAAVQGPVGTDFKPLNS

Variants of: B1
EXPERIMENT_DESCRIPTION: protein stability index of a GFP-peptide fusion (GPS, HEK-293T) (PSI 1-6); higher = more stable;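 note: lentivirally expressed fusions sorted by FACS into six bins by GFP to DsRed ratio, PSI derived from sequencing read proportions per bin multiplied by bin number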
SETUP_CONDITIONS: c terminus: a fixed tail appended
Each item that follows carries a reported protein stability index.
Please give only the number in your answer, with no unit.

Known protein stability index results, listed for orientation:
P21N; 3.62
A4L; 4.25
Q8M; 2.72

Using the record for P14R , report its protein stability index.
3.36

Using the record for P2Y , report its protein stability index.
3.47

Using the record for V15L , report its protein stability index.
3.44

Using the record for P21G , report its protein stability index.
3.13

Using the record for T17M , report its protein stability index.
3.03

Using the record for K20V , report its protein stability index.
3.25

Using the record for P21T , report its protein stability index.
3.17

Using the record for G16S , report its protein stability index.
3.48

Using the record for P14T , report its protein stability index.
3.3

Using the record for G5Q , report its protein stability index.
4.19

Using the record for S3G , report its protein stability index.
3.75
